# credit: PubChem BioAssay (Tox21)

test.method.notes: qHTS assay to identify small molecule antagonists of the estrogen receptor alpha (ER-alpha) signaling pathway using the BG1 cell line - cell viability counter screen (AID 743081);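 note: compound given together with 17beta-estradiol as the ER stimulus; nearly all actives have a fitted effect of over 45% in size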
condition.label: BG1Luc4E2 viability, CellTiter-Fluor, 22 h; series mostly up to 70.3 µM
Inconclusive results are not listed. The source made the active and inactive calls. Calls come from the whole dose curve; as a rule, active = well fitted cell-killing curve with a large enough effect in the repeat runs; inconclusive = weak or mixed curves, or effect the other way; inactive = flat fitted curve, though single readings scatter.
Labels: 1 = active, -1 = inactive

C#C[C@]1(OC(C)=O)CC[C@H]2[C@@H]3CCC4=C/C(=N/O)CC[C@@H]4[C@H]3CC[C@@]21CC | -1
Cc1ccc(-c2ccccc2)cc1 | -1
ClCCl | -1
CCC(CC)(CC(=O)Nc1cccc(/C=C/c2nc(C3CCC3)cs2)c1)C(=O)O | -1
CCC(C)n1ncn(-c2ccc(N3CCN(c4ccc(OC[C@H]5CO[C@](Cn6cncn6)(c6ccc(Cl)cc6Cl)O5)cc4)CC3)cc2)c1=O (stereo partly specified) | -1
Cc1ccc(N/N=c2\c(=O)cc/c(=N\Nc3ccc(S(=O)(=O)O)cc3)c2=O)c(C)c1 | 1
CCc1ccc(Br)cc1 | -1
COC(=O)c1ccccc1C | -1
C=CCCC(=O)/C=C/C1C(C)=CCCC1(C)C (stereo unspecified) | -1
Cc1ccc(C(=O)O)cc1 | -1
CCCCCCCC | -1
CC(=O)[C@H]1CC[C@H]2[C@@H]3CCC4=CC(=O)CC[C@]4(C)[C@H]3CC[C@]12C | -1
Cc1cc(-n2nc3ccc(Cl)cc3n2)c(O)c(C(C)(C)C)c1 | -1
Cc1c(F)c(N2CCNC(C)C2)cc2c1c(=O)c(C(=O)O)cn2C1CC1 (stereo unspecified) | -1
Cc1ccc(C)cc1 | -1
CCCCCCCCCCCCOC(=O)c1ccc(O)cc1 | -1
Nc1ccc(C(=O)O)c(O)c1 | -1
CCCCC/C=C\C/C=C\CCCCCCCC(=O)O | -1
CC(C)(c1cc(Br)c(OCC(Br)CBr)c(Br)c1)c1cc(Br)c(OCC(Br)CBr)c(Br)c1 (stereo unspecified) | -1
CCOC(=O)NNc1ccc(N(CC)CC(C)O)nn1 (stereo unspecified) | -1
O=C(O)CN(CCN(CC(=O)O)CC(=O)O)CC(=O)O | -1
CCCCCCCCCCCCCC[N+](C)(C)Cc1ccccc1 | -1
CC(C)(C)c1csc(-c2cc3cc(OCc4ccccc4CC(=O)O)ccc3o2)n1 | -1
Oc1ccccc1O | -1
COc1c(C)c2c(c(O)c1C/C=C(\C)CCC(=O)OCCN1CCOCC1)C(=O)OC2 | -1
COCCOc1cc2cc(C(=O)NC3CCN(C(C)C)CC3)n(CC(=O)Nc3ccc(Cl)cn3)c2cn1 | -1
CCCC(=O)OCCc1ccccc1 | -1
CCN(CCN)c1cccc(C)c1 | -1
CC(C(=O)O)c1ccc2c(c1)[nH]c1ccc(Cl)cc12 (stereo unspecified) | -1
CC[C@H](C)COC(=O)/C=C/c1ccc(N=Cc2ccc(OC)cc2)cc1 | -1
c1ccc(C(O[C@@H]2CCCN(CCc3ccc4c(c3)OCO4)C2)c2ccccc2)cc1 | -1
Cc1c(C)c2c(c(C)c1O)CC[C@@](C)(CCC[C@H](C)CCC[C@H](C)CCCC(C)C)O2 | -1
C[Si](Cl)(c1ccccc1)c1ccccc1 | -1
O=[N+]([O-])c1ccc(F)c(Cl)c1 | -1
CCCC(=O)OC(C)(C)Cc1ccccc1 | -1
CCOC(=O)Cn1cccc1-c1nc(-c2ccc(OC)cc2)c(-c2ccc(OC)cc2)s1 | -1
COc1cccc(OC)c1C(=O)O | -1
Nc1nc2c(ncn2COCCO)c(=O)[nH]1 | -1
COC(C)=O | -1
Cc1cc(C(C#N)c2ccc(Cl)cc2)c(Cl)cc1NC(=O)c1cc(I)cc(I)c1O (stereo unspecified) | -1
CC1(C)CC(O)CC(C)(C)N1 | -1
CN1CCCCC1CCN1c2ccccc2Sc2ccc(S(C)=O)cc21 (stereo unspecified) | -1
O=C(O)c1cccc(C(F)(F)F)c1 | -1
COc1ccc(-c2coc3cc(O)ccc3c2=O)cc1 | -1
NC(=O)c1cccc([N+](=O)[O-])c1 | -1
COc1ccc(NC(=O)CC(C)=O)cc1 | -1
CCOc1ccc2ccccc2c1C(=O)N[C@@H]1C(=O)N2[C@@H]1SC(C)(C)[C@@H]2C(=O)O | -1
O=C(O)c1cc(-c2ccc(F)cc2F)ccc1O | -1
O=C1CCCCCCCCCCCCCCCO1 | -1
Clc1ccnc(Cl)n1 | -1
CC(C)(C)C1CCC(=O)CC1 | -1

====

test.method.notes: qHTS assay to identify small molecule agonists of the retinoic acid receptor (RAR) signaling pathway (AID 1159553); for activation: % is set by controls: 0 for no effect and ±100 for the full control effect
condition.label: C3RL4 RARE luciferase reporter, agonist, 6 h
Text: National Center for Advancing Translational Sciences [NCATS] NIH Chemical Genomics Center [NCGC] U.S. Environmental Protection Agency [EPA] National Institutes of Environmental Health Sciences [NIEHS] National Toxicology Program [NTP] […]
Results filed as inconclusive are left out. Active and inactive are the calls of the source. Calls come from the whole dose curve; as a rule, active = well fitted activation curve with a large enough effect in the repeat runs; inconclusive = weak or mixed curves, or effect the other way; inactive = no such curve, though single readings can be large or run the other way.
Labels: Y for active, N for inactive

CC(C)CCOC(=O)/C=C/c1ccccc1 | Y
C=Cc1cccc(C)c1 | N
O=S(=O)(O)c1ccccc1/C=C/c1ccc(-c2ccc(/C=C/c3ccccc3S(=O)(=O)O)cc2)cc1 | N
C[C@@H](O)[C@H](N)C(=O)O | N
O[C@@H]([C@H](O)[C@H](O)CBr)[C@H](O)CBr | N
COc1ccc(-c2coc3cc(O)ccc3c2=O)cc1 | Y
CC(C(=O)O)c1ccc2c(c1)[nH]c1ccc(Cl)cc12 (stereo not drawn) | N
CN1CCCCC1CCN1c2ccccc2Sc2ccc(S(C)=O)cc21 (stereo not drawn) | N
O=C(Oc1ccccc1)Oc1ccccc1 | N
CCc1cccc(CC)c1NC(=O)CN(CC(=O)O)CC(=O)O | N
O=[N+]([O-])c1ccc(O)cc1C(F)(F)F | N
O=C(O)c1cc(=O)c2ccccc2o1 | N
COC(C)=O | N

====

test.method.notes: qHTS RealTime-Glo MT Cell Viability Assay in HEK293 cells - 16 hour (AID 1224872); note: top concentration of the series differs between compounds; % is set by controls: 0 for no effect and ±100 for the full control effect; nearly all actives have a fitted effect of over 50% in size
condition.label: RealTime-Glo luminescence; series mostly up to 76.8 µM
Records with an inconclusive call do not appear. The source made the active and inactive calls. The call rests on the fitted dose curve; in most records, active means well fitted cell-killing curve with a large enough effect in the repeat runs; inconclusive means weak or mixed curves, or effect the other way; inactive means flat fitted curve, though single readings scatter.
The entries below are paired with their reported activity change, negative = cytotoxicity.
property.label: activity change, negative = cytotoxicity

O=C(O)CN(CCN(CC(=O)O)CC(=O)O)CC(=O)O | 0.0628% [at 2.72 µM] (inactive)
C[C@H]1NCc2cc(-c3ccc4c(=O)c(C(=O)O)cn(C5CC5)c4c3OC(F)F)ccc21 | -1.72% [at 15.8 µM] (inactive)
COc1cc2nc(N3CCN(C(=O)c4ccco4)CC3)nc(N)c2cc1OC | -20% [at 15.8 µM] (inactive)
O=C(O)O | 1.92% [at 6.97 µM] (inactive)

====

study.system: Estrogen receptor beta (Homo sapiens)
test.method.notes: qHTS assay to identify small molecule agonists of the estrogen receptor beta (ER-beta) signaling pathway (AID 1259377); note: % is set by controls: 0 for no effect and ±100 for the full control effect
condition.label: ER-beta-UAS-bla HEK293T, beta-lactamase FRET ratio, 16 h; series mostly up to 92.4 µM
Inconclusive results are not listed. Active and inactive are the calls of the source. Calls follow the shape of the dose curve; as a rule, active = well fitted activation curve with a large enough effect in the signal ratio in the repeat runs (not every such curve was filed as active); inconclusive = weak or mixed curves, or effect the other way; inactive = flat fitted curve, though single readings scatter; the % refers to the signal ratio.
property.label: activation

CC(C)Cn1cnc2c(N)nc3ccccc3c21 | 4.64% [at 19 µM] (inactive)
O=C(O)c1cc(=O)c2ccccc2o1 | inactive
CC(C)=CCC1=C(O)c2ccccc2C(=O)C1=O | inactive
CCCCN(CCCC)CC(O)c1cc(Cl)cc2c1-c1ccc(Cl)cc1/C2=C/c1ccc(Cl)cc1 (stereo unspecified) | inactive
Cc1ccc(N/N=c2\c(=O)cc/c(=N\Nc3ccc(S(=O)(=O)O)cc3)c2=O)c(C)c1 | inactive
O=C(O)c1ccc2cc(C(=O)O)ccc2c1 | inactive

====

study.system: Cytochrome P450 1A2 (Homo sapiens)
test.method.notes: Cytochrome P450 Family 1 Subfamily A Member 2 (CYP1A2) small molecule antagonists: luciferase reporter qHTS assay (AID 1671199); note: nearly all actives have a fitted effect of over 50% in size; note: potency is the fitted concentration of half-maximal effect
condition.label: P450-Glo CYP1A2 enzyme, luciferin luminescence, 1 h; series mostly up to 115 µM
Records with an inconclusive call do not appear. Active and inactive are the calls of the source. Calls follow the shape of the dose curve; as a rule, active = well fitted inhibition curve with a large enough effect in the repeat runs; inconclusive = weak or mixed curves; inactive = no such curve, though single readings can be large or run the other way.
property.label: Potency

OC/C=C/CO | inactive
Nc1ccc(Oc2ccc(Cl)cc2)cc1 | 34.8 µM (active)
O=S(=O)(O)c1ccccc1/C=C/c1ccc(-c2ccc(/C=C/c3ccccc3S(=O)(=O)O)cc2)cc1 | inactive
C#C[C@]1(O)CC[C@H]2[C@@H]3[C@H](C)CC4=C(CCC(=O)C4)[C@H]3CC[C@@]21C | 24.5 µM (active)
O=C1CCCCCCCCCCCCCCCO1 | inactive
O=C(O)c1cc(O)c2ccccc2c1O | 5.64 µM (active)
c1ccsc1 | inactive
Cc1cc(-c2ccc(N=Nc3cc(S(=O)(=O)O)c4ccccc4c3N)c(C)c2)ccc1N=Nc1cc(S(=O)(=O)O)c2ccccc2c1N | inactive
CC(C)CCOC(=O)/C=C/c1ccccc1 | 22.5 µM (active)
COC(=O)c1ccccc1C | inactive
CCCCCC(C)OC(=O)COc1ccc(Cl)c2cccnc12 (configuration not stated) | 5.03 µM (active)
Clc1ccnc(Cl)n1 | inactive
O=C1CCc2cc(OCCCCc3nnnn3C3CCCCC3)ccc2N1 | inactive
O=C(/C=C/c1ccccc1)OC/C=C/c1ccccc1 | 28.3 µM (active)
O=[N+]([O-])c1ccc(O)cc1C(F)(F)F | 35.6 µM (active)
O=[N+]([O-])c1cccc(C(F)(F)F)c1 | inactive
CC1=Nc2ccccc2C1(C)C | 63.4 µM (active)
CCc1ccc(Br)cc1 | inactive
C=CC(=O)OCCOC(=O)C=C | inactive
C=C(CC)C(=O)c1ccc(OCC(=O)O)c(Cl)c1Cl | inactive
CC(C)CCCCCOC(=O)CCS | 39.9 µM (active)
OC1CCC(C2CCCCC2)CC1 (configuration not stated) | 35.6 µM (active)
CCCCN(CCCC)CC(O)c1cc(Cl)cc2c1-c1ccc(Cl)cc1/C2=C/c1ccc(Cl)cc1 (configuration not stated) | 16.2 µM (active)
O=C(O)Cc1ccc2c(c1)C(=O)c1ccccc1CO2 | inactive
COC1=C(OC)C(=O)C(CCCCCCCCCCO)=C(C)C1=O | 15.5 µM (active)
CC(N=C(NC#N)Nc1ccncc1)C(C)(C)C (configuration not stated) | inactive
CC[C@H](C)COC(=O)/C=C/c1ccc(N=Cc2ccc(OC)cc2)cc1 | 5.63 µM (active)
